subject.of.test: Cellular tumor antigen p53 (Homo sapiens)
assay: TOX21_p53_BLA_p3_ratio: Tox21 HCT-116 p53 Agonism Beta-lactamase Assay, Ratio, Phase 3 (AID 2283596)
Records with an inconclusive call do not appear. The source made the active and inactive calls. Rule for the calls: active = hit-call score of the fitted dose curve at least 0.9, where 1 is the maximum; inconclusive = response in the unintended direction; inactive = score below 0.9.
Outcomes: active, inactive

compound	subject.of.test	class.assignment
C=C1/C(=C\C=C2/CCC[C@]3(C)[C@@H]([C@H](C)CCCC(C)C)CC[C@@H]23)C[C@@H](O)C[C@@H]1O	Cellular tumor antigen p53 (Homo sapiens)	active
CCOC(=O)CC(=O)OCC	Cellular tumor antigen p53 (Homo sapiens)	inactive
C=COCC1CCC(CO)CC1 (stereo not drawn)	Cellular tumor antigen p53 (Homo sapiens)	inactive
